Reference source for all entries: patent US20240240209A1

Assay: Cell lysate reaction of pMT enzymes with psi-ionone, irones quantified by HS-SPME-GCMS
Format: biochemical
Settings: pMT1_E153 mutants; AUC vs non-mutated (=1)
Would you mind telling me the reported fold change in cis-α-irone produced of each entry?
Give bare numbers.

Below, each entry is followed by its recorded fold change in cis-α-irone produced result.
[
  {
    "Molecule": "pMT1_E153F: pMT1 with E153F (protein) MPQEARTPQQQVTADEVGDWYDKFGEVYHLTLGESVHCGLWFPPDAPVPQDMELVTMSSQAQDRYTDYLIETLDPKAGQHLLDIGCGTGRTALKAARQRGIAVTGVAVSKEQIAAANRLAAGHGLTERLTFEVADAMRLPYEDESFDCAWAIFSLCHMDRAKALGEAWRVLKPGGDLLVLESVVTEELTEPETALFETLYAANVPPRLGEFFDIVSGAGFHTLSLKDLSANLAMTMNVFALGVYSRRAEFTERFGAEFVDGLLAGLGSAQETLIRKTRFFMATLRKPAV",
    "fold change in cis-α-irone produced": 0.0
  },
  {
    "Molecule": "pMT1_E153R: pMT1 with E153R (protein) MPQEARTPQQQVTADEVGDWYDKFGEVYHLTLGESVHCGLWFPPDAPVPQDMELVTMSSQAQDRYTDYLIETLDPKAGQHLLDIGCGTGRTALKAARQRGIAVTGVAVSKEQIAAANRLAAGHGLTERLTFEVADAMRLPYEDESFDCAWAIRSLCHMDRAKALGEAWRVLKPGGDLLVLESVVTEELTEPETALFETLYAANVPPRLGEFFDIVSGAGFHTLSLKDLSANLAMTMNVFALGVYSRRAEFTERFGAEFVDGLLAGLGSAQETLIRKTRFFMATLRKPAV",
    "fold change in cis-α-irone produced": 0.0
  },
  {
    "Molecule": "pMT1_E153D: pMT1 with E153D (protein) MPQEARTPQQQVTADEVGDWYDKFGEVYHLTLGESVHCGLWFPPDAPVPQDMELVTMSSQAQDRYTDYLIETLDPKAGQHLLDIGCGTGRTALKAARQRGIAVTGVAVSKEQIAAANRLAAGHGLTERLTFEVADAMRLPYEDESFDCAWAIDSLCHMDRAKALGEAWRVLKPGGDLLVLESVVTEELTEPETALFETLYAANVPPRLGEFFDIVSGAGFHTLSLKDLSANLAMTMNVFALGVYSRRAEFTERFGAEFVDGLLAGLGSAQETLIRKTRFFMATLRKPAV",
    "fold change in cis-α-irone produced": 0.2
  },
  {
    "Molecule": "pMT1_E153W: pMT1 with E153W (protein) MPQEARTPQQQVTADEVGDWYDKFGEVYHLTLGESVHCGLWFPPDAPVPQDMELVTMSSQAQDRYTDYLIETLDPKAGQHLLDIGCGTGRTALKAARQRGIAVTGVAVSKEQIAAANRLAAGHGLTERLTFEVADAMRLPYEDESFDCAWAIWSLCHMDRAKALGEAWRVLKPGGDLLVLESVVTEELTEPETALFETLYAANVPPRLGEFFDIVSGAGFHTLSLKDLSANLAMTMNVFALGVYSRRAEFTERFGAEFVDGLLAGLGSAQETLIRKTRFFMATLRKPAV",
    "fold change in cis-α-irone produced": 0.0
  },
  {
    "Molecule": "pMT1_E153V: pMT1 with E153V (protein) MPQEARTPQQQVTADEVGDWYDKFGEVYHLTLGESVHCGLWFPPDAPVPQDMELVTMSSQAQDRYTDYLIETLDPKAGQHLLDIGCGTGRTALKAARQRGIAVTGVAVSKEQIAAANRLAAGHGLTERLTFEVADAMRLPYEDESFDCAWAIVSLCHMDRAKALGEAWRVLKPGGDLLVLESVVTEELTEPETALFETLYAANVPPRLGEFFDIVSGAGFHTLSLKDLSANLAMTMNVFALGVYSRRAEFTERFGAEFVDGLLAGLGSAQETLIRKTRFFMATLRKPAV",
    "fold change in cis-α-irone produced": 0.0
  },
  {
    "Molecule": "pMT1_E153C: pMT1 with E153C (protein) MPQEARTPQQQVTADEVGDWYDKFGEVYHLTLGESVHCGLWFPPDAPVPQDMELVTMSSQAQDRYTDYLIETLDPKAGQHLLDIGCGTGRTALKAARQRGIAVTGVAVSKEQIAAANRLAAGHGLTERLTFEVADAMRLPYEDESFDCAWAICSLCHMDRAKALGEAWRVLKPGGDLLVLESVVTEELTEPETALFETLYAANVPPRLGEFFDIVSGAGFHTLSLKDLSANLAMTMNVFALGVYSRRAEFTERFGAEFVDGLLAGLGSAQETLIRKTRFFMATLRKPAV",
    "fold change in cis-α-irone produced": 0.0
  }
]

Batch request: fold change in cis-α-irone produced per item, same order as input.
1. pMT1_E153I: pMT1 with E153I (protein) MPQEARTPQQQVTADEVGDWYDKFGEVYHLTLGESVHCGLWFPPDAPVPQDMELVTMSSQAQDRYTDYLIETLDPKAGQHLLDIGCGTGRTALKAARQRGIAVTGVAVSKEQIAAANRLAAGHGLTERLTFEVADAMRLPYEDESFDCAWAIISLCHMDRAKALGEAWRVLKPGGDLLVLESVVTEELTEPETALFETLYAANVPPRLGEFFDIVSGAGFHTLSLKDLSANLAMTMNVFALGVYSRRAEFTERFGAEFVDGLLAGLGSAQETLIRKTRFFMATLRKPAV
2. pMT1_E153A: pMT1 with E153A (protein) MPQEARTPQQQVTADEVGDWYDKFGEVYHLTLGESVHCGLWFPPDAPVPQDMELVTMSSQAQDRYTDYLIETLDPKAGQHLLDIGCGTGRTALKAARQRGIAVTGVAVSKEQIAAANRLAAGHGLTERLTFEVADAMRLPYEDESFDCAWAIASLCHMDRAKALGEAWRVLKPGGDLLVLESVVTEELTEPETALFETLYAANVPPRLGEFFDIVSGAGFHTLSLKDLSANLAMTMNVFALGVYSRRAEFTERFGAEFVDGLLAGLGSAQETLIRKTRFFMATLRKPAV

Out:
1: 0.0; 2: 0.1
